- Assay details: Oral bioavailability in Wistar rat at 250 mg/kg by HPLC analysis
- Assay type: ADME, organism-based
- Experimental setup: in vivo
Reported bioavailability is given for each of the following compounds.
Answer with a number only, understood to be in %.

stdin: Consider the compound shown here: COc1ccc(-c2cc(=O)c3c(OC)cc(OC)cc3o2)cc1 What is its recorded bioavailability?
stdout: 1.75

stdin: Consider the compound shown here: COc1cc(OC)c2c(=O)c(OC)c(-c3ccc(OC)c(OC)c3)oc2c1 What is its recorded bioavailability?
stdout: 3.32

stdin: Consider the compound shown here: COc1cc(OC)c2c(=O)cc(-c3ccccc3)oc2c1 What is its recorded bioavailability?
stdout: 2.1

Value source: ChEMBL document CHEMBL3526121
